test: Acid dissociation constant of the tertiary ammonium group; type: ADME; conditions: read-out: pKa2
Listing of recorded pKa by entry.

CCN(CC)CCNc1ccnc2cc(C(F)(F)F)ccc12: 7.65

Give the reported value of pKa for this record: "CCN(CC)CCNc1ccnc2cc(N)ccc12" 10

Give the reported value of pKa for this record: "CCN(CC)CCNc1ccnc2cc(Br)ccc12" 7.97

Give the reported value of pKa for this record: "CCN(CC)CCNc1ccnc2cc(O)ccc12" 8.95

###

test: Acid dissociation constant of the quinolinium cation; type: ADME; conditions: read-out: pKa1
Listing of recorded pKa by entry.
I only need the number, thanks.

Worked set:
CCN(CC)CCNc1ccnc2cc(Br)ccc12: 7.93
CCN(CC)CCNc1ccnc2cc(OC)ccc12: 8.09
CCN(CC)CCNc1ccnc2cc(C)ccc12: 8.12

Give the reported value of pKa for this record: "CCN(CC)CCNc1ccnc2cc(N)ccc12" 8.36

Give the reported value of pKa for this record: "CCN(CC)CCNc1ccnc2cc(O)ccc12" 6.82

Give the reported value of pKa for this record: "CCN(CC)CCNc1ccnc2cc(I)ccc12" 7.48

Give the reported value of pKa for this record: "CCN(CC)CCNc1ccnc2cc(F)ccc12" 7.62

Give the reported value of pKa for this record: "CCN(CC)CCNc1ccnc2cc(Cl)ccc12" 7.56

Give the reported value of pKa for this record: "CCN(CC)CCNc1ccnc2cc([N+](=O)[O-])ccc12" 6.28

Give the reported value of pKa for this record: "CCN(CC)CCNc1ccnc2ccccc12" 7.96

Give the reported value of pKa for this record: "CCN(CC)CCNc1ccnc2cc(C(F)(F)F)ccc12" 7.5

###

assay: Acid dissociation constant of the tertiary ammonium group; format: ADME; conditions: read-out: pKa2
# if value of pKa reaches 9, tag rule met; if it stays below, tag rule not met

Use these answered entries as a reference point.
CCN(CC)CCNc1ccnc2cc(I)ccc12: rule not met
CCN(CC)CCNc1ccnc2ccccc12: rule met
CCN(CC)CCNc1ccnc2cc(OC)ccc12: rule met

For this compound, is measured pKa 9 or higher? "CCN(CC)CCNc1ccnc2cc(C)ccc12" rule met

###

test: Association constant of hematin-aminoquinoline complex formation reported by spectrophotometric titration in aqueous dimethyl sulfoxide(DMSO) at pH 7.5; type: ADME; conditions: buffer
reported property: Log K
I only need the number, thanks.

Worked set:
CCN(CC)CCNc1ccnc2cc(C(F)(F)F)ccc12: 4.67
CCN(CC)CCNc1ccnc2cc(O)ccc12: 4.48
CCN(CC)CCNc1ccnc2cc(F)ccc12: 4.6
CCN(CC)CCNc1ccnc2cc([N+](=O)[O-])ccc12: 4.65
CCN(CC)CCNc1ccnc2cc(I)ccc12: 5.02

Next, consider the following molecule.
Give the reported value of Log K for this record: "CCN(CC)CCNc1ccnc2cc(Cl)ccc12" 5.81

###

experiment: Acid dissociation constant of the tertiary ammonium group; type: ADME; settings: read-out: pKa2
reported property: pKa
I only need the number, thanks.

Worked set:
CCN(CC)CCNc1ccnc2cc([N+](=O)[O-])ccc12: 8.8
CCN(CC)CCNc1ccnc2cc(F)ccc12: 9.24

Give the reported value of pKa for this record: "CCN(CC)CCNc1ccnc2cc(Cl)ccc12" 8.83

###

assay: Association constant of hematin-aminoquinoline complex formation reported by spectrophotometric titration in aqueous dimethyl sulfoxide(DMSO) at pH 7.5; type: ADME; conditions: buffer
reported property: Log K
I only need the number, thanks.

Give the reported value of Log K for this record: "CCN(CC)CCNc1ccnc2cc(N)ccc12" 4.35

Give the reported value of Log K for this record: "CCN(CC)CCNc1ccnc2cc(OC)ccc12" 4.83

Give the reported value of Log K for this record: "CCN(CC)CCNc1ccnc2cc(C)ccc12" 4.86

Give the reported value of Log K for this record: "CCN(CC)CCNc1ccnc2cc(Br)ccc12" 4.99

Give the reported value of Log K for this record: "CCN(CC)CCNc1ccnc2ccccc12" 4.75
